Where these numbers come from: patent US20240116985A1

Biological target: T1, full-length beta-Catenin (Uniprot ID P35222) (Homo sapiens (Human), UniProt P35222 1-781)
T1 construct: also called bCat; B-Catenin
T1 sequence: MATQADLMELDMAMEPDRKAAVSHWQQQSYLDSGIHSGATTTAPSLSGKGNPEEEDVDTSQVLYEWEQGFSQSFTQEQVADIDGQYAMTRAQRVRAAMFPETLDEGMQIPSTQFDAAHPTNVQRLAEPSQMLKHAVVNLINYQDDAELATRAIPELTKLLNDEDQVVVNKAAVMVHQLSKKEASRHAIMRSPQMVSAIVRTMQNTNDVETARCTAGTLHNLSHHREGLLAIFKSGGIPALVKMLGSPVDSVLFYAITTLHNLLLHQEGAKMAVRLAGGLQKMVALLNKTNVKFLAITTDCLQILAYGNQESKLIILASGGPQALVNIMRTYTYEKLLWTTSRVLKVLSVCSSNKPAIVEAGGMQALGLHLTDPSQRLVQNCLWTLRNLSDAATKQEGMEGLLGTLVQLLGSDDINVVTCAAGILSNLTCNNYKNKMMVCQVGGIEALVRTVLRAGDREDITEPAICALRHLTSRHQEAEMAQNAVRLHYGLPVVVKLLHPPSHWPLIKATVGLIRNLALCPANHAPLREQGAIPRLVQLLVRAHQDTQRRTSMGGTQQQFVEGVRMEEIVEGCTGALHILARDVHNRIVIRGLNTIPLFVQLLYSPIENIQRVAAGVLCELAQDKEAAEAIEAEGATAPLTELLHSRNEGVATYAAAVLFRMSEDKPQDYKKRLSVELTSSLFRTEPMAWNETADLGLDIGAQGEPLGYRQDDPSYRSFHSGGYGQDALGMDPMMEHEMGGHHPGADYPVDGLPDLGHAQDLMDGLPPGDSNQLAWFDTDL
Assay: fluorescence polarization competition; peptide titrated against 10 nM full-length beta-catenin + 10 nM 5FAM-TCF4(10-53)
pIC50: −log10 of the molar value.

BINDER	pIC50
XDAXDDAAFVXAWQ (not fully specified; N-terminal Ac; PL3 at 1, B5 at 4, S8 at 11 (staples 1-4 and 4-11 by olefin metathesis); C-terminal NH2, Stapled peptide; also called Ac-PL3-Asp-Ala-B5-Asp-Asp-Ala-Ala-Phe-Val-S8-Ala-Trp-Gln-NH2) [I-355]	5.30
XDAXDDAAAVXFWQ (not fully specified; N-terminal Ac; PL3 at 1, B5 at 4, S8 at 11 (staples 1-4 and 4-11 by olefin metathesis); C-terminal NH2, Stapled peptide; also called Ac-PL3-Asp-Ala-B5-Asp-Asp-Ala-Ala-Ala-Val-S8-Phe-Trp-Gln-NH2) [I-354]	5.30
XDAXDDAAFVXFAQ (not fully specified; N-terminal Ac; PL3 at 1, B5 at 4, S8 at 11 (staples 1-4 and 4-11 by olefin metathesis); C-terminal NH2, Stapled peptide; also called Ac-PL3-Asp-Ala-B5-Asp-Asp-Ala-Ala-Phe-Val-S8-Phe-Ala-Gln-NH2) [I-357]	5.30
